Tested on: UO-31 renal
Experiment: NCI tumour cell line growth inhibition, 48 h
# reported TGI; entries follow

CC(=O)C1=C(C)N(c2ccccc2)C2(O)C3=C(C(=O)c4ccccc4C3=O)C(O)=CC12Cl (centres undefined) ... 26.7 µM

Exercise: Could you share which TGI value was measured for CC(C)(C)OC(=O)NC(CSCc1ccc(C(=O)c2ccccc2)cc1)C(=O)N1CCN(CCCCN2c3ccccc3Sc3cc(N=[N+]=[N-])ccc32)CC1 (centres undefined) ?
Key: > 100 µM

Exercise: If you can, please state the reported TGI value of O=c1c(NCc2ccccc2)c(C2(c3ccccc3F)SCCCS2)c1=O .
Key: > 100 µM

Exercise: Which value of TGI has been reported for Cc1[nH]c(=O)nc(N/N=C/c2c3ccccc3c(Cl)c3ccccc23)c1C(=O)Nc1ccc(Cl)cc1 in the records?
Key: > 100 µM

---

Tested on: NCI-H226 lung
Assay: NCI tumour cell line growth inhibition, 48 h
measurement-type: TGI

# example entries with known answers
O=C1OC(C(O)CO)C(C(O)CO)OC1=O (stereo unspecified) ... > 10 µM
CCN(Cc1ccc(Cl)c(Cl)c1)c1ccc2nc(N)nc(N)c2c1C ... 4.3 µM
C=C1C(=O)OC2CC1C(OC(=O)/C=C/c1ccccc1)C/C(C)=C/CC/C(C)=C/CCC2(C)O (stereo unspecified) ... 3.57 µM
COc1ccc(C2=C(c3ccc(OC)cc3)C(=O)OC2)cc1 ... 31.4 µM
O=C(O)c1ccc2c(O)c(O)ccc2c1 ... 44.3 µM
CC1=NNC(=O)C1C1(C(=O)O)CC(c2c[nH]c3ccccc23)=NC(=S)N1 (stereo unspecified) ... 85.8 µM
CC1(Cl)C(=O)NC(=O)N([C@H]2C[C@H](O)[C@@H](CO)O2)C1N=[N+]=[N-] (stereo partly specified) ... > 100 µM
Cc1cc(=O)[nH]c2cc(NC(=O)C(C)NC(=O)C(C)NC(=O)C(C)NC(=O)OC(C)(C)C)ccc12 (stereo unspecified) ... > 15 µM
Nc1[nH]nc(Nc2ccccc2)c1-c1nc2ccccc2s1 ... 17 µM
CC1=C(C)C(=O)OC(C(C)(O)C2(O)CC3OC34C3CC(O)C56OC5C=CC(=O)C6(C)C3CCC42C)C1 (stereo unspecified) ... 12.9 µM

Would you kindly look at the next entry?
Exercise: # returns recorded TGI (system: NCI-H226 lung) for Cc1c(C)c2cc3c(=O)c(CCl)coc3c(C)c2oc1=O
Key: > 100 µM

---

System: MCF7 breast
Experiment: NCI tumour cell line growth inhibition, 48 h
Where a SMILES comes first, the peptide text is derived from it. [ ]: non-standard residue; d: D form. Ava = NCCCCC(=O)O; Mpa = O=C(O)CCS
Consider the following molecules and their measured TGI readings.

Nc1[nH]nc(Nc2ccccc2)c1-c1nc2ccccc2s1 ... 8.68 µM
NCCCn1c(Cl)nc2ccccc21 ... > 100 µM

Exercise: Consider the molecule COC(=O)c1csc(-c2csc(CCNC(=O)OC(C)(C)C)n2)n1 and give its measured TGI.
Key: > 100 µM

Exercise: Requested read-out: TGI. Entry: COc1cc2c(cc1OC)C(CCN)=NCC2
Key: 40.2 µM

Exercise: Quick one: TGI of Cc1[nH]n(-c2nc(-c3ccccc3)cc(=O)[nH]2)c(=O)c1CCO ?
Key: > 100 µM

Exercise: Give its TGI value. Item: CCN(CC)Cc1cc(N=Nc2c(O)ccc3c(N=Nc4ccc(O)c(CN(CC)CC)c4)c(O)ccc23)ccc1O
Key: 13 µM

Exercise: // lookup TGI for CC(=O)c1cc2c(Br)cccc2oc1=O
Key: > 100 µM

Exercise: Endpoint output: TGI of COc1ccc(C2=Nn3c(nnc3-c3ccc(F)c(Cl)c3)SC2)cc1 . Value?
Key: > 100 µM

Exercise: Need TGI of Cc1cn(S(=O)(=O)c2ccccc2)c2c(OCc3ccccc3)cc([N+](=O)[O-])cc12 , thanks.
Key: > 100 µM

Exercise: Look up TGI: COC(=O)C1(Cc2ccc3c(c2)CCC3)Cc2ccc3c(c2C1=O)CCC3 (stereo not given)
Key: > 20.4 µM

Exercise: Any idea what TGI was measured for O=C(O)CCCN1C(=O)/C(=C/C(Cl)=C/c2ccccc2)SC1=S ?
Key: 11.4 µM

Exercise: Give the measured TGI of CC(O)C(CO)NC(=O)C1CSSCC(NC(=O)C(N)Cc2ccccc2)C(=O)NC(Cc2ccccc2)C(=O)NC(Cc2c[nH]c3ccccc23)C(=O)NC(CCCCN)C(=O)NC(C(C)O)C(=O)N1 (stereo not given) .
Key: > 100 µM

Exercise: What value of measured TGI is listed for COc1cc(C[C@H]2COC(=O)[C@]2(O)Cc2ccc(OCc3ccccc3)c(OC)c2)ccc1OCc1ccccc1 ?
Key: > 100 µM

Exercise: // query TGI value for entry CC(NC(=O)CCS)C(=O)NC(C)C(=O)NC(Cc1c[nH]c2ccccc12)C(=O)NC(Cc1c[nH]cn1)C(=O)NC(CO)C(=O)NC(Cc1c[nH]c2ccccc12)C(=O)NCCCCC(=O)NC(C)C(=O)NC(CCC(N)=O)C(=O)NC(CCCCN)C(=O)NC(C)C(=O)NC(CCCNC(=N)N)C(=O)NC(CCCCN)C(N)=O (stereo not given) ([Mpa]AAWHSW[Ava]AQKARK-NH2; configuration not given here)
Key: > 100 µM

Exercise: Param item = CC1=C[P+](c2ccccc2)(c2ccccc2)c2ccccc2O1 ; retrieve measured TGI.
Key: > 100 µM

Exercise: Please look up its TGI: COc1ccc2c(c1)/C(=C\c1c(Cl)nc3n1CCS3)C(=O)N2
Key: 48.5 µM

Exercise: Entry under review: CCOC(=O)NC(Nc1ccc(F)cc1F)(C(F)(F)F)C(F)(F)F . Reported TGI?
Key: > 100 µM

Exercise: Fill in the blank: the reported TGI of CC(C#N)(NO)C(C)(C#N)NO (stereo not given) is ____.
Key: > 100 µM

Exercise: I'd like to know its TGI. The molecule in question is CCN(Cc1ccc(Cl)c(Cl)c1)c1ccc2nc(N)nc(N)c2c1C
Key: 1.52 µM

Exercise: Given the molecule COc1cc(/C=C/C(=O)CC(=O)/C=C/c2cc(C)c(O)c(OC)c2)cc(C)c1O , what is its reported TGI?
Key: > 100 µM

---

Tested on: DLD-1 colon
Experiment: NCI tumour cell line growth inhibition, 48 h
# Lookup of reported TGI keyed by entry

COCN1COCN(C)C1=O ... > 100 µM
C=CC[P@]1(=O)O[C@H](c2ccccc2)C(C)N1C(C)C (some centres not stated) ... > 100 µM

Exercise: Fill blank: measured TGI of the compound CN(C)CCNC(=O)c1cccc2c1C(=O)c1ccccc1C2=O is ____.
Key: > 77.6 µM

---

System: OVCAR-4 ovarian
Assay: NCI tumour cell line growth inhibition, 48 h
measurement-type: TGI (µM)
Number in µM, nothing else.

Exercise: Give its TGI value. Item: Cc1cc(NS(=O)(=O)c2ccc(NC(=O)c3ccc(Cl)c4c(Nc5ccc(S(=O)(=O)Nc6cc(C)on6)cc5)c5ccccc5nc34)cc2)no1
Key: 81.8

Exercise: # lookup: TGI of CCC(C)C(Nc1c2ccccc2nc2c(C(=O)NCCN(C)C)cccc12)C(=O)O (stereo not given)
Key: 25.8

---

Test system: HCC-2998 colon
Experiment: NCI tumour cell line growth inhibition, 48 h
measurement-type: TGI

C[C@H]1C[C@@H](n2c(Nc3ccc(OC(F)(F)F)cc3)nc3cc(CCC(=O)O)ccc32)CC(C)(C)C1 ... 20.8 µM
O=[N+]([O-])c1ccc2c(c1)nc1n2C(c2c(F)cccc2F)SC1 (stereo unspecified) ... > 100 µM
CC(=O)OCC1OC(n2c(C)c(C)cc(C#N)c2=S)C(OC(C)=O)C(OC(C)=O)C1OC(C)=O (stereo unspecified) ... > 100 µM
COc1ccc(C2=C(c3ccc(OC)cc3)C(=O)OC2)cc1 ... 14.5 µM
O=C(Cn1c2ccc(Br)cc2c2nc3ccccc3nc21)NCc1ccccc1 ... > 100 µM

Exercise: Request the reported TGI associated with O=C(NCCCN1CCN(CCCNC(=O)c2cccc3ccccc23)CC1)c1cccc2ccccc12
Key: > 100 µM

Exercise: Looking for the measured TGI of CC(C)(C)OC(=O)NC(CSCc1ccc(C(=O)c2ccccc2)cc1)C(=O)N1CCN(CCCCN2c3ccccc3Sc3cc(N=[N+]=[N-])ccc32)CC1 (stereo unspecified) , can you help?
Key: > 100 µM

Exercise: TGI lookup needed for COc1cc2ncnc(NS(=O)(=O)c3cc4ccccc4s3)c2cc1OC , thanks.
Key: > 100 µM

Exercise: What value of TGI has been recorded for this entry: O=C(COc1cc(=O)oc2ccccc12)c1ccccc1
Key: > 100 µM

Exercise: Which TGI value belongs to COc1cc(/C=C/c2ccc(OC)c(OC)c2)oc(=O)c1 ?
Key: > 250 µM

Exercise: What does the data say about its TGI? Entry: O=C1/C(=C/c2ccc(F)cc2)COc2ccc(O)c(O)c21
Key: 3.57 µM

Exercise: Look at this compound and give its reported TGI. O=c1[nH]c2nc3ccccc3c(=O)n2nc1Cc1ccccc1
Key: > 100 µM

Exercise: May I ask what TGI has been recorded for Cn1c(=O)nc2n(-c3ccc(Br)cc3)c3ccccc3nc-2c1=O ?
Key: 10.8 µM

Exercise: For the compound COc1cc(C[C@H]2COC(=O)[C@]2(O)Cc2ccc(OCc3ccccc3)c(OC)c2)ccc1OCc1ccccc1 , what TGI is on record?
Key: > 100 µM

Exercise: Return reported TGI; argument: CCC1(O)C(=O)OCc2c1cc1n(c2=O)Cc2cc3cc4c(cc3nc2-1)OCO4 (stereo unspecified)
Key: 0.396 µM

Exercise: Reported TGI for COc1ccc(-c2cc(-c3ccc(C)cc3)n(C3OC(COC(C)=O)C(OC(C)=O)C(OC(C)=O)C3OC(C)=O)c(=S)c2C#N)cc1 (stereo unspecified) : what is it?
Key: > 100 µM

Exercise: Would you mind telling me what TGI value was observed for CNc1c2ccccc2nc2occ(Cl)c12 ?
Key: > 100 µM

Exercise: Given the entry C=CCCC(O)c1cc(C)c(O)c(C)c1 (stereo unspecified) , report its measured TGI.
Key: > 100 µM

Exercise: Return reported TGI; argument: COC(=O)NC1(NC(=O)OC)NC(=O)c2ccccc2N1
Key: > 100 µM

Exercise: Given N[C@H]1CCC[C@@H](O)C1O (stereo partly specified) , state its recorded TGI.
Key: > 100 µM

Exercise: Consider the compound shown here: O=C(Nc1ccccc1C(=O)NCc1ccccc1)/C(=C/c1ccccc1O)NC(=O)c1ccccc1 What is its recorded TGI?
Key: > 100 µM
